- test_method_notes: Clearance of compound (5 mg/kg, intravenously), in dog plasma
- Format: ADME, organism-based, Canis lupus familiaris
- study_conditions: iv
test_readout: clearance (mL/min/kg)
Please respond with the number in mL/min/kg and leave the unit unwritten.

What value of clearance has been recorded for this entry: Nc1cccc(CN2C(=O)N(Cc3cccc(C(=O)Nc4ncc[nH]4)c3)[C@H](Cc3ccccc3)[C@H](O)[C@@H](O)[C@H]2Cc2ccccc2)c1
8.33

----------
- test_method_notes: Half life (10 mg/kg, perorally) […] in dogs
- Type: ADME, organism-based, Canis lupus familiaris
- study_conditions: dog, in vivo
test_readout: half-life (h)
Please respond with the number in h and leave the unit unwritten.

What value of half-life has been recorded for this entry: Nc1cccc(CN2C(=O)N(Cc3cccc(C(=O)Nc4ncc[nH]4)c3)[C@H](Cc3ccccc3)[C@H](O)[C@@H](O)[C@H]2Cc2ccccc2)c1
10.3

----------
- test_method_notes: Half life (10 mg/kg, orally) […] in dog plasma
- Format: ADME, organism-based, Canis lupus familiaris
test_readout: half-life (h)
Please respond with the number in h and leave the unit unwritten.

What value of half-life has been recorded for this entry: Nc1cccc(CN2C(=O)N(Cc3cccc(N)c3)[C@H](Cc3ccccc3)[C@H](O)[C@@H](O)[C@H]2Cc2ccccc2)c1 [MOZENAVIR]
2.5

----------
Reported logP values for the following compounds.
- test_method_notes: Partition coefficient (logP) (HPLC)
- Type: physicochemical
- study_conditions: octanol/water
// print number alone

Record excerpt, results attached:
• Nc1cccc(CN2C(=O)N(Cc3cccc(C(=O)Nc4ncc[nH]4)c3)[C@H](Cc3ccccc3)[C@H](O)[C@@H](O)[C@H]2Cc2ccccc2)c1 = 3.39
• CC(C)(C)NC(=O)c1cccc(CN2C(=O)N(Cc3cccc(N)c3)[C@H](Cc3ccccc3)[C@H](O)[C@@H](O)[C@H]2Cc2ccccc2)c1 = 5.28

# evaluate next
What value of logP has been recorded for this entry: Nc1cccc(CN2C(=O)N(Cc3cccc(C(=O)Nc4nc5ccccc5[nH]4)c3)[C@H](Cc3ccccc3)[C@H](O)[C@@H](O)[C@H]2Cc2ccccc2)c1
4.95

----------
- tested_system: Human immunodeficiency virus type 1 protease (Human immunodeficiency virus 1, UniProt Q72874)
test_readout: pKi
Just the number, please; pKi means minus log10 of the concentration in mol/L.

• Nc1cccc(CN2C(=O)N(Cc3cccc(C(=O)Nc4cnccn4)c3)[C@H](Cc3ccccc3)[C@H](O)[C@@H](O)[C@H]2Cc2ccccc2)c1 = 10.80

# evaluate next
What value of pKi has been recorded for this entry: N#CCNC(=O)c1cccc(CN2C(=O)N(Cc3cccc(C(=O)NCC(=O)O)c3)[C@H](Cc3ccccc3)[C@H](O)[C@@H](O)[C@H]2Cc2ccccc2)c1
10.62

----------
Please consider the recorded log10 of IC90 for UniProt Q72874 in what follows.
Plainly stated, the numbers are log10 of IC90 given in nM.

• CC(C)CN(C[C@@H](O)[C@H](Cc1ccccc1)NC(=O)O[C@H]1CCOC1)S(=O)(=O)c1ccc(N)cc1 = 1.66
• Nc1cccc(CN2C(=O)N(Cc3cccc(C(=O)Nc4cnccn4)c3)[C@H](Cc3ccccc3)[C@H](O)[C@@H](O)[C@H]2Cc2ccccc2)c1 = 1.31
• COc1cccc(CN2C(=O)N(Cc3cccc(C(=O)Nc4ccccn4)c3)[C@H](Cc3ccccc3)[C@H](O)[C@@H](O)[C@H]2Cc2ccccc2)c1 = 1.48
• Cc1ccc(NC(=O)c2cccc(CN3C(=O)N(Cc4cccc(N)c4)[C@H](Cc4ccccc4)[C@H](O)[C@@H](O)[C@H]3Cc3ccccc3)c2)nc1 = 1.22

What value of log10 of IC90 has been recorded for this entry: CC(C)(C)NC(=O)[C@@H]1CN(Cc2cccnc2)CCN1C[C@@H](O)C[C@@H](Cc1ccccc1)C(=O)N[C@H]1c2ccccc2C[C@H]1O
1.70

What value of log10 of IC90 has been recorded for this entry: COc1cccc(CN2C(=O)N(Cc3cccc(C(=O)Nc4ccc(C)cn4)c3)[C@H](Cc3ccccc3)[C@H](O)[C@@H](O)[C@H]2Cc2ccccc2)c1
1.62

What value of log10 of IC90 has been recorded for this entry: COc1cc(CN2C(=O)N(Cc3cccc(C(=O)Nc4cnccn4)c3)[C@H](Cc3ccccc3)[C@H](O)[C@@H](O)[C@H]2Cc2ccccc2)cc(OC)c1
2.87

What value of log10 of IC90 has been recorded for this entry: COc1cccc(CN2C(=O)N(Cc3cccc(C(=O)Nc4cnccn4)c3)[C@H](Cc3ccccc3)[C@H](O)[C@@H](O)[C@H]2Cc2ccccc2)c1
1.96
